Target: PI3Kα (Homo sapiens, UniProt P42336)
Sequence (P42336 whole entry, species assumed): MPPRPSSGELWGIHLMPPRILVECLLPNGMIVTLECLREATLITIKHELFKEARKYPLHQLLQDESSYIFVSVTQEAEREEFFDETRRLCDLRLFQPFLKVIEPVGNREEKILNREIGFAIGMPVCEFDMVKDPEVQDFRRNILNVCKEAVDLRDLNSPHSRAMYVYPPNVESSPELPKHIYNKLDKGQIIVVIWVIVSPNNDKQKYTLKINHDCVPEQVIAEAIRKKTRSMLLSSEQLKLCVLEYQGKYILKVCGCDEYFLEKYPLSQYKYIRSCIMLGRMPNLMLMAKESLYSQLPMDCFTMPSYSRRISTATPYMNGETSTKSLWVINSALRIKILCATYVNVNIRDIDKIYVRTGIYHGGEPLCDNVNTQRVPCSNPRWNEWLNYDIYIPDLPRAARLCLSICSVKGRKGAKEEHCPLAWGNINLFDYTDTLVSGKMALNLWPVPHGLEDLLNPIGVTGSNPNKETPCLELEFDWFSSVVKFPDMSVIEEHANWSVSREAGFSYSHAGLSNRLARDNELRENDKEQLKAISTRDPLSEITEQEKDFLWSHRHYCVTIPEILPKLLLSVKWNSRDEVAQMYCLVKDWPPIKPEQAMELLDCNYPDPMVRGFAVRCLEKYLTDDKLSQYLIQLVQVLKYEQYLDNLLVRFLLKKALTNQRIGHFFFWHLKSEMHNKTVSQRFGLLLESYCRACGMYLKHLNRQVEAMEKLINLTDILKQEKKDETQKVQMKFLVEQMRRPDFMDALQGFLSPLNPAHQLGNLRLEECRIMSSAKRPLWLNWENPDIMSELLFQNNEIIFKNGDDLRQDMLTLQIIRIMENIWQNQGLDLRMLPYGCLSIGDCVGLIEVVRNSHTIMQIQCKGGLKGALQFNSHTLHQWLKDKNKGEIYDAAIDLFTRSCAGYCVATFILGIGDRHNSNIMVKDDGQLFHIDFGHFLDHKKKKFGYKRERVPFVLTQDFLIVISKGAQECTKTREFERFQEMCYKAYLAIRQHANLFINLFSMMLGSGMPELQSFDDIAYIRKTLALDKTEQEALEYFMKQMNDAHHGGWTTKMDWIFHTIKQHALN
Sequence (P27986 whole entry partner, species assumed): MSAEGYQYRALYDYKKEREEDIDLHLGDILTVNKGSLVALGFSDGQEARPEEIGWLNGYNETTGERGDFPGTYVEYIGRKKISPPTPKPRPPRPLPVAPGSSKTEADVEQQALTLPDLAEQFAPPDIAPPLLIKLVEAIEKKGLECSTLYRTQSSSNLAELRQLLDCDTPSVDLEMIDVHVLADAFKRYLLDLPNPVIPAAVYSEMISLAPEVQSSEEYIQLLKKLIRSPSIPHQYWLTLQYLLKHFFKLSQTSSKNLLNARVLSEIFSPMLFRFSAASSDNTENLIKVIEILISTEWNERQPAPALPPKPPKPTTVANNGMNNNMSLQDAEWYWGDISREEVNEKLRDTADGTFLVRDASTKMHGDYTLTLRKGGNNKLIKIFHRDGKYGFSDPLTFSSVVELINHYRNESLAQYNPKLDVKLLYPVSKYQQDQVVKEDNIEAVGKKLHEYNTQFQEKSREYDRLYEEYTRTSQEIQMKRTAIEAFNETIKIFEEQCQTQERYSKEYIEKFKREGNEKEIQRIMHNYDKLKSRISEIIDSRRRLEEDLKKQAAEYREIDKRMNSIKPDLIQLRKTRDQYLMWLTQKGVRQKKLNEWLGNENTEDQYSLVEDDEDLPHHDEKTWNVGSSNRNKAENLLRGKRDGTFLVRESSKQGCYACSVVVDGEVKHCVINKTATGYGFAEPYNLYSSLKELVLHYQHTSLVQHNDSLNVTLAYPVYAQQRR
Assay: ADP-Glo luminescent assay, enzymatic activity of PI3K alpha
Assay type: biochemical
Settings: ATP 25 μM; read-out: PI3K alpha (nM) inhibitory activity (IC50)
Property name: IC50

compound="CC(=O)Nc1nc(C)c(-c2cc3c(c(N4CCOCC4)n2)C(=O)N([C@@H](C)C2CC2)C3)s1 [Compound 34]" result="3330 nM"
compound="CCS(=O)(=O)Nc1nc(-c2sc(NC(C)=O)nc2C)cc2c1C(=O)N([C@@H](C)C1CC1)C2 [Compound 23]" result="3330 nM"
compound="CC(=O)Nc1nc(C)c(-c2cc3c(c(NS(C)(=O)=O)n2)C(=O)N([C@@H](C)C2CC2)C3)s1 [Compound 20]" result="3890 nM"
compound="CC(=O)Nc1nc(C)c(-c2cc3c(c(N4CCS(=O)(=O)CC4)n2)C(=O)N([C@@H](C)C2CC2)C3)s1 [Compound 38]" result="8420 nM"
compound="CC(=O)Nc1nc(C)c(-c2cc3c(c(N4CCOCC4)n2)C(=O)N([C@H](C)C2CC2)C3)s1 [Compound 35]" result="4140 nM"
